Reported viability values are given for each entry in this list.
assay: drug combination growth inhibition, ovarian cancer – cell-based, oncology-focused library, rucaparib conditional, profiling panel (AID 1508598); conditions: patient-derived ovarian cancer cells, CellTiter-Glo viability, 144 h; at 5 µM; OCI-C5x cells; without rucaparib; stronger effect = lower value
Field format: number, assumed %, no unit text.

# annotated cases, reported viability shown
MOLECULE | viability [%]
C[C@]12CC[C@H]3c4ccc(O)cc4CC[C@H]3[C@@H]1CC[C@H]2O | 94.8
COc1ccc(C2=N[C@@H](c3ccc(Cl)cc3)[C@H](c3ccc(Cl)cc3)N2C(=O)N2CCNC(=O)C2)c(OC(C)C)c1 | 95.4
O=c1[nH]c(=O)n([C@@H]2C[C@H](O)[C@@H](CO)O2)cc1F | 183
Cc1[nH]c(C=C2C(=O)Nc3ccc(S(=O)(=O)N(C)c4cccc(Cl)c4)cc32)c(C)c1C(=O)N1CCN(C)CC1 | 126
COc1ccc(C2=N[C@H](c3ccc(Cl)cc3)[C@@H](c3ccc(Cl)cc3)N2C(=O)N2CCNC(=O)C2)c(OC(C)C)c1 | 137
CO[C@H]1C[C@H]2CC[C@@H](C)[C@@](O)(O2)C(=O)C(=O)N2CCCC[C@H]2C(=O)O[C@H]([C@H](C)C[C@@H]2CC[C@H](OP(C)(C)=O)[C@H](OC)C2)CC(=O)[C@H](C)/C=C(\C)[C@@H](O)[C@@H](OC)C(=O)[C@H](C)C[C@H](C)/C=C/C=C/C=C/1C | 102
Cc1cc(NC(=O)c2cccc(NC(=O)/C=C/CN(C)C)c2)ccc1Nc1nccc(-c2cccnc2)n1 | 194
COC1=C2C[C@H](C)C[C@@H](OC)[C@H](O)[C@H](C)/C=C(\C)[C@H](OC(N)=O)[C@@H](OC)/C=C/C=C(\C)C(=O)NC(=CC1=O)C2=O | 5.94
CC1(C)C=C(CN2C/C(=C/c3ccc(F)cc3)C(=O)/C(=C/c3ccc(F)cc3)C2)C(C)(C)N1O | 115
COc1ccccc1-c1cc(Nc2cccc(CS(N)(=O)=O)c2)ncn1 | 99.7

Form: molecule = CCC1=CC2CN(C1)Cc1c([nH]c3ccccc13)[C@@](C(=O)OC)(c1cc3c(cc1OC)N(C)[C@H]1[C@@](O)(C(=O)OC)[C@H](OC(C)=O)[C@]4(CC)C=CCN5CC[C@@]31[C@H]54)C2 (stereo not given in full) ; viability = 22.2

Form: molecule = CCNC(=O)c1noc(-c2cc(Cl)c(O)cc2O)c1-c1ccc(OC)cc1 ; viability = 6.88

Form: molecule = C[C@]12CCC(=O)C=C1CC[C@@H]1[C@H]2[C@H](O)C[C@@]2(C)[C@H]1CC[C@@]2(O)C(=O)CO ; viability = 120

Form: molecule = CC(C)CC(CC(=O)NO)C(=O)N[C@@H](Cc1ccc2ccccc2c1)C(=O)N[C@@H](C)C(=O)NCCN (stereo not given in full) ; viability = 110

Form: molecule = COc1cc2c(cc1O)CC[C@@H]1[C@H]2CC[C@]2(C)[C@H](O)CC[C@@H]12 ; viability = 101

----------
experiment: viability loss with induced miR-34 in A549 – imaging, A549 dox-inducible miR-34, nuclei and caspase counts, primary screen (AID 1347080); conditions: A549 miR-34 inducible, Hoechst nuclei count, 48 h; measured here: total cells without miR-34 induction
Reported cell count values are given for each entry in this list.
// no unit, no text: just the number

# annotated cases, reported cell count shown
MOLECULE | cell count
CCc1nc(NC(=O)NC(c2ccccc2)c2ccco2)nn1C (centres undefined) | 9680
Nc1ccn(C2O[C@H](CO)[C@@H](O)C2(F)F)c(=O)n1 (some centres undefined) | 1660
CCC(C)C(NC(=O)C(CCC(=O)O)NC(=O)C(CC(C)C)NC(=O)C1CN=C(C(N)C(C)C)S1)C(=O)NC1CCCCNC(=O)C(CC(N)=O)NC(=O)C(CC(=O)O)NC(=O)C(Cc2cnc[nH]2)NC(=O)C(Cc2ccccc2)NC(=O)C(C(C)CC)NC(=O)C(CCCN)NC1=O (centres undefined) | 7240

Consider the record given below.
Form: molecule = CCc1nc(NC(=O)N(C)Cc2cccc(-n3cccn3)c2)nn1C ; cell count = 9480
